experimental target: AKT1 E17K (Homo sapiens (Human), UniProt P31749, E17K)
Sequence (P31749 whole entry E17K): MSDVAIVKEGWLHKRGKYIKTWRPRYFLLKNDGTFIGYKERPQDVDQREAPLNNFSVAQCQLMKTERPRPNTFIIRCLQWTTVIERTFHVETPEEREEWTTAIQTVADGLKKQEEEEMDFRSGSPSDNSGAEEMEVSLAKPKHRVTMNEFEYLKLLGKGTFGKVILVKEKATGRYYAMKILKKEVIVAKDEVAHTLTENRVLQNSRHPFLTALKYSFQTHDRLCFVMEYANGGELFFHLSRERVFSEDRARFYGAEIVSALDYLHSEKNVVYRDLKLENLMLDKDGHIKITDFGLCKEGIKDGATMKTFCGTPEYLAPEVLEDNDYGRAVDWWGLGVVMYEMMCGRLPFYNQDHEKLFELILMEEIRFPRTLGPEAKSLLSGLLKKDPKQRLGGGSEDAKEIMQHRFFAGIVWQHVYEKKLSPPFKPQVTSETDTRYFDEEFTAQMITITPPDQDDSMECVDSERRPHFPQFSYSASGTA
test description: Live cell target engagement (NanoBRET) in HEK293 cells
Format: cell-based
Kindly state AKT1 E17K IC50: Selectivity vs AKT1 WT for each of the entries shown.
Give the figure by itself; no unit, no explanation.

Prompt line: Print AKT1 E17K (Homo sapiens (Human), UniProt P31749, E17K) AKT1 E17K IC50: Selectivity vs AKT1 WT for CN(CCc1ccc(-n2c(-c3cccnc3N)nc3ccc(-c4ccccc4)nc32)cc1)Cc1ccc(C=O)c(O)c1 .
Response line: 1.5

Prompt line: Report measured AKT1 E17K IC50: Selectivity vs AKT1 WT on AKT1 E17K (Homo sapiens (Human), UniProt P31749, E17K); entry: Cc1ccc2nc(-c3cccnc3N)n(-c3ccc(C4(NC(=O)Cc5ccc(C=O)c(O)c5F)CC4)cc3)c2n1
Response line: 1.7

Prompt line: Enter measured AKT1 E17K IC50: Selectivity vs AKT1 WT, system AKT1 E17K (Homo sapiens (Human), UniProt P31749, E17K), for the compound shown: Nc1ncccc1-c1nc2ccc(-c3ccccc3)nc2n1-c1ccc(CC(=O)NC2(c3ccc(C=O)c(O)c3)CC2)cc1
Response line: 3.1

Prompt line: Provide measured AKT1 E17K IC50: Selectivity vs AKT1 WT on AKT1 E17K (Homo sapiens (Human), UniProt P31749, E17K) for C[C@@H](NCCc1ccc(O)c(C=O)c1)c1ccc(-n2c(-c3cccnc3N)nc3ccc(-c4ccccc4)nc32)cc1 please.
Response line: 1

Prompt line: Give AKT1 E17K IC50: Selectivity vs AKT1 WT for Nc1ncccc1-c1nc2ccc(-c3ccccc3)nc2n1-c1ccc(CNC(=O)c2ccc(C=O)c(O)c2)cc1 tested on AKT1 E17K (Homo sapiens (Human), UniProt P31749, E17K).
Response line: 0.52

Prompt line: Enter recorded AKT1 E17K IC50: Selectivity vs AKT1 WT with AKT1 E17K (Homo sapiens (Human), UniProt P31749, E17K) for Nc1ncccc1-c1nc2ccc(-c3cccc(N4CCOCC4)c3)nc2n1-c1ccc(CCNCc2ccc(C=O)c(O)c2)cc1 here.
Response line: 1.7

Prompt line: Give AKT1 E17K (Homo sapiens (Human), UniProt P31749, E17K) AKT1 E17K IC50: Selectivity vs AKT1 WT for the following compound: CC(NCCc1ccc(C=O)c(O)c1)c1ccc(-n2c(-c3cccnc3N)nc3ccc(-c4ccccc4)nc32)cc1 (stereo not shown)
Response line: 2.6

Prompt line: With AKT1 E17K (Homo sapiens (Human), UniProt P31749, E17K) as the test system, provide measured AKT1 E17K IC50: Selectivity vs AKT1 WT for this compound: CC(C)c1ccc2nc(-c3cccnc3N)n(-c3ccc(CNC(=O)Cc4ccc(C=O)c(O)c4)cc3)c2n1
Response line: 4.8

Prompt line: Tell me its AKT1 E17K IC50: Selectivity vs AKT1 WT on AKT1 E17K (Homo sapiens (Human), UniProt P31749, E17K): Nc1ncccc1-c1nc2ccc(-c3cccc(N4CCOCC4)c3)nc2n1-c1ccc(CNC(=O)Cc2ccc(C=O)c(O)c2)cc1
Response line: 0.93

Prompt line: Lab note: record AKT1 E17K IC50: Selectivity vs AKT1 WT of Nc1ncccc1-c1nc2ccc(-c3ccccc3)nc2n1-c1ccc(CNC(=O)Cc2ccc(C=O)c(O)c2)cc1 tested on AKT1 E17K (Homo sapiens (Human), UniProt P31749, E17K).
Response line: 3.2

Prompt line: Report AKT1 E17K IC50: Selectivity vs AKT1 WT under test system AKT1 E17K (Homo sapiens (Human), UniProt P31749, E17K) for Nc1ncccc1-c1nc2ccc(-c3ccncc3)nc2n1-c1ccc(CNCCc2ccc(C=O)c(O)c2)cc1 .
Response line: 2.9

Prompt line: Name the value of AKT1 E17K IC50: Selectivity vs AKT1 WT reported for Nc1ncccc1-c1nc2ccc(-c3ccccc3)nc2n1-c1ccc(CNC(=O)c2ccc(C=O)c(O)c2F)cc1 when tested on AKT1 E17K (Homo sapiens (Human), UniProt P31749, E17K).
Response line: 1.3

Prompt line: # return AKT1 E17K IC50: Selectivity vs AKT1 WT for CC(NC(=O)Cc1ccc(C=O)c(O)c1)c1ccc(-n2c(-c3cccnc3N)nc3ccc(-c4ccccc4)nc32)cc1 (stereo not shown) , test system: AKT1 E17K (Homo sapiens (Human), UniProt P31749, E17K)
Response line: 1.9

Prompt line: GET AKT1 E17K IC50: Selectivity vs AKT1 WT | system: AKT1 E17K (Homo sapiens (Human), UniProt P31749, E17K) | item: Nc1ncccc1-c1nc2ccc(-c3ccncc3)nc2n1-c1ccc(CNC(=O)Cc2ccc(C=O)c(O)c2)cc1
Response line: 3

Prompt line: Look up AKT1 E17K (Homo sapiens (Human), UniProt P31749, E17K) data: AKT1 E17K IC50: Selectivity vs AKT1 WT of Nc1ncccc1-c1nc2ccc(N3CCOCC3)nc2n1-c1ccc(CNC(=O)Cc2ccc(C=O)c(O)c2)cc1 , then report it.
Response line: 20

Prompt line: Given Cc1c(CC(=O)NCc2ccc(-n3c(-c4cccnc4N)nc4ccc(-c5ccccc5)nc43)cc2)ccc(C=O)c1O , report its AKT1 E17K IC50: Selectivity vs AKT1 WT on AKT1 E17K (Homo sapiens (Human), UniProt P31749, E17K).
Response line: 3.3

Prompt line: State recorded AKT1 E17K IC50: Selectivity vs AKT1 WT with AKT1 E17K (Homo sapiens (Human), UniProt P31749, E17K), entry CC(=O)N(C)C1CCN(c2cccc(-c3ccc4nc(-c5cccnc5N)n(-c5ccc(CNCCc6ccc(C=O)c(O)c6)cc5)c4n3)c2)CC1 , no comment.
Response line: 0.63

Prompt line: Give AKT1 E17K IC50: Selectivity vs AKT1 WT only, for Nc1ncccc1-c1nc2ccc(-c3ccccc3)nc2n1-c1ccc(CNC(=O)c2ccc(O)c(C=O)c2)cc1 , using AKT1 E17K (Homo sapiens (Human), UniProt P31749, E17K) data.
Response line: 2.1

Prompt line: // fetch AKT1 E17K IC50: Selectivity vs AKT1 WT for Nc1ncccc1-c1nc2ccc(N3CCOCC3)nc2n1-c1ccc(CNCCc2ccc(C=O)c(O)c2)cc1 ; system: AKT1 E17K (Homo sapiens (Human), UniProt P31749, E17K)
Response line: 3.5

Prompt line: Provide AKT1 E17K IC50: Selectivity vs AKT1 WT, system AKT1 E17K (Homo sapiens (Human), UniProt P31749, E17K), entry Nc1ncccc1-c1nc2ccc(-c3ccccc3)nc2n1-c1ccc(CNC(=O)C2(c3ccc(C=O)c(O)c3)CC2)cc1
Response line: 16

Prompt line: Give AKT1 E17K IC50: Selectivity vs AKT1 WT for this entry on AKT1 E17K (Homo sapiens (Human), UniProt P31749, E17K): Nc1ncccc1-c1nc2ccc(-c3cccnc3)nc2n1-c1ccc(CNC(=O)Cc2ccc(C=O)c(O)c2F)cc1
Response line: 4.4

Prompt line: Using AKT1 E17K (Homo sapiens (Human), UniProt P31749, E17K) as the test system, report measured AKT1 E17K IC50: Selectivity vs AKT1 WT of Cn1cc(-c2ccc3nc(-c4cccnc4N)n(-c4ccc(CNC(=O)Cc5ccc(C=O)c(O)c5)cc4)c3n2)cn1 .
Response line: 9

Prompt line: # lookup: AKT1 E17K (Homo sapiens (Human), UniProt P31749, E17K) AKT1 E17K IC50: Selectivity vs AKT1 WT, key = COc1ccc2nc(-c3cccnc3N)n(-c3ccc(CNC(=O)Cc4ccc(C=O)c(O)c4)cc3)c2n1
Response line: 23

Prompt line: Name the value of AKT1 E17K IC50: Selectivity vs AKT1 WT reported for Nc1ncccc1-c1nc2ccc(-c3cccnc3)nc2n1-c1ccc(CNCCc2ccc(C=O)c(O)c2)cc1 when tested on AKT1 E17K (Homo sapiens (Human), UniProt P31749, E17K).
Response line: 2.5

Prompt line: Lab note: AKT1 E17K (Homo sapiens (Human), UniProt P31749, E17K) assay, enter AKT1 E17K IC50: Selectivity vs AKT1 WT for CC(=O)Nc1c(C=O)ccc(CCNCc2ccc(-n3c(-c4cccnc4N)nc4ccc(-c5ccccc5)nc43)cc2)c1F here
Response line: 0.65

Prompt line: Output reported AKT1 E17K IC50: Selectivity vs AKT1 WT of the compound CC(C)(C(=O)NCc1ccc(-n2c(-c3cccnc3N)nc3ccc(-c4ccccc4)nc32)cc1)c1ccc(C=O)c(O)c1 on AKT1 E17K (Homo sapiens (Human), UniProt P31749, E17K).
Response line: 8.2

Prompt line: Would you please give the reported AKT1 E17K IC50: Selectivity vs AKT1 WT of Nc1ncccc1-c1nc2ccc(-c3cccnc3)nc2n1-c1ccc(CNC(=O)C2(c3ccc(C=O)c(O)c3)CC2)cc1 with AKT1 E17K (Homo sapiens (Human), UniProt P31749, E17K)?
Response line: 7.7

Prompt line: State measured AKT1 E17K IC50: Selectivity vs AKT1 WT of the compound Nc1ncccc1-c1nc2ccc(-c3ccccc3)nc2n1-c1ccc(CNC(=O)Cc2ccc(C=O)c(O)n2)cc1 with AKT1 E17K (Homo sapiens (Human), UniProt P31749, E17K).
Response line: 1.7
